- MEASUREMENT PROTOCOL: ATP-based viability of Huh7 replicon cells – cell-based, CellTiter-Glo luminescence, basal, 48 h, cytotoxicity control for HCV replication inhibitor project, primary screen (AID 1143);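 further: Huh7 hepatoma cells carrying a hepatitis C replication reporter with no stimulus; test concentration not given here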
- CONDITIONS USED: higher = more signal, called active from +8 up or from −8 down
Kindly note that classification relies on z-score with these boundaries: low: < -4; moderate: ≥ -4 and < -0.6; high: ≥ -0.6

Check out these entries, answers already filled in.
Task item: Field: class (z-score) — entry: Cc1ccc(C(C)CC(O)C2C=CC3C(=O)N(C)C(=O)C3N2Nc2ccccc2)o1 (centres undefined)
Reply: high

Task item: Field: class (z-score) — entry: CC(C)NC(=O)[C@@H]1c2ccccc2C(=O)N(Cc2ccccc2C(F)(F)F)[C@H]1c1ccc(CO)cc1
Reply: moderate

Task item: Field: class (z-score) — entry: CCN(CC)c1ccc(N2CC=CC34O[C@@H]5C=CCCOC(=O)C5[C@H]3C(=O)N(C(C)CO)[C@@H]4C2=O)cc1 (some centres undefined)
Reply: high

More entries:
Task item: Field: class (z-score) — entry: C=C(COC)/C(=C/C[C@H](OC(C)=O)c1ccccc1OCCO)c1cc(C(=O)OC)ccc1OC
Reply: moderate

Task item: Field: class (z-score) — entry: COC(=O)[C@@]1(Cc2ccccc2)[C@H]2c3cc(C(=O)N(C)C)n(CCSC(=N)N)c3C[C@H]2CN1C(=O)c1ccccc1
Reply: high

Task item: Field: class (z-score) — entry: C=CCOC(=O)[C@@H]1[C@H]2C(=O)O[C@H](c3ccccc3)[C@H](c3ccccc3)N2[C@H](c2ccc(OCCOC(=O)[C@H]3C[C@H]4C(=O)N[C@@H](CCCCN(C)C)C(=O)N4[C@H]3c3ccc(O)cc3)cc2)[C@@]12C(=O)Nc1ccc(I)cc12
Reply: moderate

Task item: Field: class (z-score) — entry: C=CCC(OC(C)=O)[C@@H]1[C@@H](N(Cc2cccc3ccccc23)C(=O)c2ccc(-c3ccccc3)cc2)c2cc(OCCCO)ccc2N1C(=O)Cc1ccc2ccccc2c1 (some centres undefined)
Reply: high

Task item: Field: class (z-score) — entry: O=C1C[C@@](C(=O)NC2CC2)(c2ccc([N+](=O)[O-])cc2)[C@@H](c2ccc(CO)cc2)N1C1CCCCC1
Reply: low

Task item: Field: class (z-score) — entry: COc1cc(CO)cc(I)c1O[C@H]1C=C(C(=O)NCCO)C[C@@H]2O[C@H]12
Reply: low

Task item: Field: class (z-score) — entry: COCCOC(=O)N1C(=O)[C@@]2(c3cc(C#CCCO)ccc31)[C@H](c1ccc(OCCO)cc1)N1[C@H](c3ccccc3)[C@H](c3ccccc3)OC(=O)[C@H]1[C@@H]2C(=O)N1CCCCCCC1
Reply: moderate

Task item: Field: class (z-score) — entry: [N-]=[N+]=Nc1ccccc1C[C@]1(C(=O)N2CCOCC2)N=C(c2ccc(OCCCO)cc2)O[C@H]1c1ccccc1N=[N+]=[N-]
Reply: low

Task item: Field: class (z-score) — entry: C=CCN1C(=O)[C@]2(O[C@H](CCn3cc([C@H](O)c4ccccc4)nn3)[C@@H]([Si](C)(C)c3ccc(OC)cc3)[C@@H]2C)c2cc(NC(=O)c3ccc(OC)cc3)ccc21
Reply: moderate

###

- MEASUREMENT PROTOCOL: hepatitis C replication reporter changes, two-sided – Huh7 cells, luciferase reporter, HCV replication inhibitor project, primary screen (AID 1109);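 further: huh7 hepatoma cells harbouring a luciferase neomycin HCV replicon reporter; luciferase luminescence as measure of HCV replicon replication; test concentration not given here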
- CONDITIONS USED: Huh7 HCV replicon luciferase reporter, 48 h; higher = more signal
Label 1.0 when z-score is at or above -2; anything below gets 0.0.

Task item: Determine whether measured z-score meets or exceeds -2 for CCN(CC)c1ccc(N2CC=CC34O[C@@H]5C=CCCOC(=O)C5[C@H]3C(=O)N(C(C)CO)[C@@H]4C2=O)cc1 (some centres not stated)
Reply: 1.0

Task item: Determine whether measured z-score meets or exceeds -2 for CCOC(=O)C1=CC[C@@H](c2ccc(OC)cc2)N(S(=O)(=O)c2ccc(C)cc2)[C@H]1CC
Reply: 0.0

Task item: Determine whether measured z-score meets or exceeds -2 for COCC(=C=CC[C@H](O)c1ccccc1OCCO)C[C@H](O)COCc1ccccc1
Reply: 1.0

Task item: Determine whether measured z-score meets or exceeds -2 for CC(C)NC(=O)[C@@H]1c2ccccc2C(=O)N(Cc2ccc(OC(F)(F)F)cc2)[C@H]1c1ccc(CO)cc1
Reply: 1.0

Task item: Determine whether measured z-score meets or exceeds -2 for COc1ccc([Si](C)(C)[C@@H]2[C@@H](CC(=O)N3CCC[C@H]3CO)O[C@]3(C(=O)N(Cc4cccc(N5CCCCC5=O)c4)c4ccccc43)[C@H]2C)cc1
Reply: 0.0

Task item: Determine whether measured z-score meets or exceeds -2 for O=C(NCC(O)CO)C1N=C(c2ccc(OCCCO)cc2)N(c2ccccc2)O1 (configuration not stated)
Reply: 1.0

Read the next record carefully.
Task item: Determine whether measured z-score meets or exceeds -2 for COCCOC(=O)N1C(=O)[C@@]2(c3ccccc31)[C@H](c1ccc(O)cc1)N1[C@H](c3ccccc3)[C@H](c3ccccc3)OC(=O)[C@H]1[C@@H]2C(=O)N1CCCCCCC1
Reply: 0.0

###

- MEASUREMENT PROTOCOL: changes in parasitized red cell lysis, either direction – P. falciparum Indochina, OD700, 3 h, PSAC antagonist project, primary screen (AID 1156)
- CONDITIONS USED: P. falciparum-infected erythrocytes, osmotic lysis, higher = more signal, called active from +8 up or from −8 down
Listing of entries alongside the reported z-score.
Lab note: jot down the number only; don't add units.

Below, 4 molecules whose answers are already recorded.
Task item: Please give the documented z-score of COCCOC(=O)N1C(=O)[C@@]2(c3cc(C#CCCO)ccc31)[C@H](c1ccc(OCCO)cc1)N1[C@H](c3ccccc3)[C@H](c3ccccc3)OC(=O)[C@H]1[C@@H]2C(=O)N1CCCCCCC1
Reply: -0.564

Task item: Please give the documented z-score of COC(=O)[C@@]1(Cc2ccc(OC)cc2)[C@H]2c3cc(C(=O)N4CCCC4)n(Cc4c(CO)[nH]cc(C)c4=O)c3C[C@H]2CN1C(=O)c1ccccc1
Reply: 0.455

Task item: Please give the documented z-score of COCCOC(=O)N1C(=O)[C@@]2(c3cc(C#CCC(C(=O)OC)C(=O)OC)ccc31)[C@H](C(=O)Nc1nc3ccccc3s1)[C@H]1C(=O)O[C@H](c3ccccc3)[C@H](c3ccccc3)N1[C@@H]2c1ccc(O)cc1
Reply: -0.0813

Task item: Please give the documented z-score of COC(=O)C(CC#Cc1ccc2c(c1)[C@]1(C(=O)N2)[C@H](C(=O)NC[C@H](O)c2ccccc2)[C@H]2C(=O)O[C@H](c3ccccc3)[C@H](c3ccccc3)N2[C@@H]1c1ccccc1OCCO)C(=O)OC
Reply: 0.725

More entries:
Task item: Please give the documented z-score of COCCCNC(=O)[C@@H]1c2ccccc2C(=O)N(Cc2ccc(OC(F)(F)F)cc2)[C@H]1c1ccc(CO)cc1
Reply: 0.913

Task item: Please give the documented z-score of CC(C)C(=C=CC[C@H](O)c1ccccc1OCCO)C[C@H](O)c1cc(Cl)cc(Cl)c1O
Reply: -0.25

###

- SYSTEM UNDER TEST: Calmodulin-1 (Homo sapiens) (UniProt P0DP23)
- MEASUREMENT PROTOCOL: small molecules binding calmodulin-1 with EGTA – biochemical, small-molecule microarray, Cy5-labelled CALM1, profiling panel (AID 1111);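 further: labelled calmodulin applied in Tris saline Tween buffer holding calcium plus EGTA and DTT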
- CONDITIONS USED: Cy5-CALM1 binding fluorescence, higher = more signal
Listing of entries alongside the reported composite z-score.
Lab note: jot down the number only; don't add units.

Below, 3 molecules whose answers are already recorded.
Task item: Quote composite z-score with test system Calmodulin-1 (Homo sapiens) (UniProt P0DP23) for C=CCC(OC(C)=O)[C@@H]1[C@@H](N(Cc2cc3ccccc3o2)C(=O)c2cccc3ccccc23)c2cc(OCCCO)ccc2N1C(=O)c1ccc2ccccc2n1 (some centres undefined)
Reply: -0.153

Task item: Quote composite z-score with test system Calmodulin-1 (Homo sapiens) (UniProt P0DP23) for C=C(COC)C(=O)CC[C@H](OC(=O)c1cccnc1)c1ccc(OCCO)cc1
Reply: -0.395

Task item: Quote composite z-score with test system Calmodulin-1 (Homo sapiens) (UniProt P0DP23) for NC(=O)NCC#Cc1ccc2c(c1)[C@]1(C(=O)N2)[C@H](c2ccc(OCCO)cc2)N2[C@H](c3ccccc3)[C@H](c3ccccc3)OC(=O)[C@H]2[C@@H]1C(=O)NC[C@H](O)c1ccccc1
Reply: 0.0317

More entries:
Task item: Quote composite z-score with test system Calmodulin-1 (Homo sapiens) (UniProt P0DP23) for COC(=O)[C@@]1(Cc2ccc(OC)cc2)[C@H]2c3cc(C(=O)N4CCCC4)n(Cc4ccc(Cl)c(C(F)(F)F)c4)c3C[C@H]2CN1C(=O)c1ccccc1
Reply: 2.74

Task item: Quote composite z-score with test system Calmodulin-1 (Homo sapiens) (UniProt P0DP23) for CN1C(=O)C2C(C3CC3)C=C3CN(Cc4cccc(Cl)c4)[C@@H]([C@@H](O)Cc4ccccc4)C3C2C1=O (some centres undefined)
Reply: 0.283

Task item: Quote composite z-score with test system Calmodulin-1 (Homo sapiens) (UniProt P0DP23) for CN(C)C(=O)[C@]1(Cc2ccccc2)N=C(c2ccc(OCCCO)cc2)O[C@@H]1c1ccccc1CN=[N+]=[N-]
Reply: 1.09

Task item: Quote composite z-score with test system Calmodulin-1 (Homo sapiens) (UniProt P0DP23) for CC(C)N1C(=O)c2ccccc2[C@](C)(C(=O)NCC(F)(F)F)[C@@H]1c1ccc(CO)cc1
Reply: -0.625

Task item: Quote composite z-score with test system Calmodulin-1 (Homo sapiens) (UniProt P0DP23) for CC(C)c1nc2cc(Br)ccc2c(=O)o1
Reply: 2

Task item: Quote composite z-score with test system Calmodulin-1 (Homo sapiens) (UniProt P0DP23) for [N-]=[N+]=Nc1ccccc1[C@@H]1OC(c2ccc(OCCCO)cc2)=N[C@]1(Cc1ccccc1)C(=O)NCCN1CCOCC1
Reply: -0.0408

Task item: Quote composite z-score with test system Calmodulin-1 (Homo sapiens) (UniProt P0DP23) for COCCOC(=O)N1C(=O)[C@@]2(c3cc(C#CC4(O)CCCCCC4)ccc31)[C@H](c1ccc(O)cc1)N1[C@H](c3ccccc3)[C@H](c3ccccc3)OC(=O)[C@H]1[C@@H]2C(=O)N1CCCCCCC1
Reply: -0.39

Task item: Quote composite z-score with test system Calmodulin-1 (Homo sapiens) (UniProt P0DP23) for C=C(C)[C@@H]1CC=C(C(O)C2C=CC3C(=O)N(C)C(=O)C3N2Nc2ccc([N+](=O)[O-])cc2[N+](=O)[O-])CC1 (some centres undefined)
Reply: 0.79

Task item: Quote composite z-score with test system Calmodulin-1 (Homo sapiens) (UniProt P0DP23) for C[N+](C)(C)CCCC[C@@H]1NC(=O)[C@@H]2C[C@H](C(=O)NCc3ccc(F)cc3)[C@H](c3ccc(O)cc3)N2C1=O
Reply: -0.1

Task item: Quote composite z-score with test system Calmodulin-1 (Homo sapiens) (UniProt P0DP23) for CCCNC(=O)[C@@]1(Sc2ccc(C)cc2)CC(=O)N(Cc2ccccc2Cl)[C@@H]1c1ccc(CO)cc1I
Reply: 0.284

Task item: Quote composite z-score with test system Calmodulin-1 (Homo sapiens) (UniProt P0DP23) for O=C1O[C@@H](c2ccccc2)[C@@H](c2ccccc2)N2[C@@H](c3ccccc3OCCO)[C@]3(C(=O)Nc4ccc(C#CCCO)cc43)[C@@H](C(=O)NC[C@H](O)c3ccccc3)[C@H]12
Reply: 2.34
